experiment: Volume of distribution at steady state in monkey at 2 mg/kg, iv; type: ADME, organism-based, Macaca mulatta; design: dose 2 mg/kg, route intravenous; conditions: rhesus monkey, in vivo, read-out: Vdss
// Vd lookup, one value per entry
The reply should contain only the number, in L/kg.

smiles=Cc1c(-c2cn(C(C)C)c(=O)c3ccccc23)c2cc(F)ccc2n1CC(=O)O measurement=0.95

Would you kindly look at the next entry?
**Q:** Recorded Vd for "Cc1c(Cc2ccc(=O)n(Cc3ccc(F)cc3F)n2)c2cc(F)ccc2n1CC(=O)O" , please?
**A:** 0.4

* * *

target: Prostaglandin D2 receptor (Homo sapiens, UniProt Q13258); experiment: Binding affinity to DP1 receptor (unknown origin) by FRET assay
Sequence (Q13258 whole entry): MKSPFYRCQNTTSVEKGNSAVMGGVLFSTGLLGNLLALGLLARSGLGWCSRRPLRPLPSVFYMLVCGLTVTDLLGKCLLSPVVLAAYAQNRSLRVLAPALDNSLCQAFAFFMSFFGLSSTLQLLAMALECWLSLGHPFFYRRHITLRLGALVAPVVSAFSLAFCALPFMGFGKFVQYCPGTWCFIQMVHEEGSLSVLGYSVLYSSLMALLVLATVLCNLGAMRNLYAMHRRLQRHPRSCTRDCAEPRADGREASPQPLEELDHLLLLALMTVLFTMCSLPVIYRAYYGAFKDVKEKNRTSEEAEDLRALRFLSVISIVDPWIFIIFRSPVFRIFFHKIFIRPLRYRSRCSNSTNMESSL
Measurement Label: IC50 (µM)
The reply should contain only the number, in µM.

**Q:** Recorded IC50 for "Cc1c(-c2cn(C(C)C)c(=O)c3ccccc23)c2cc(F)ccc2n1CC(=O)O" , please?
**A:** 16

* * *

assay: Permeability in human Caco2 cells at pH 6.5; conditions: Caco-2, pH 6.5
Measurement Label: Papp

**Q:** Recorded Papp for "Cc1c(-c2cn(C(C)C)c(=O)c3ccccc23)c2cc(F)ccc2n1CC(=O)O" , please?
**A:** 2.7 ×10⁻⁶ cm/s

* * *

experiment: Cmax in dog at 10 mg/kg, po; type: ADME, organism-based, Canis lupus familiaris; set-up: dose 10 mg/kg, route oral; conditions: in vivo
Measurement Label: Cmax (ng/mL)
The reply should contain only the number, in ng/mL.

smiles=Cc1c(-c2cn(C(C)C)c(=O)c3ccccc23)c2cc(F)ccc2n1CC(=O)O reading_unit=ng/mL measurement=2010

Would you kindly look at the next entry?
**Q:** Recorded Cmax for "Cc1c(Cc2ccc(=O)n(Cc3ccc(F)cc3F)n2)c2cc(F)ccc2n1CC(=O)O" , please?
**A:** 716

* * *

assay: Drug excretion in dog feces assessed as drug recovery at 5 mg/kg, iv measured after 24 hrs by LC-MS analysis; assay type: ADME, organism-based, Canis lupus familiaris; design: dose 5 mg/kg, route intravenous; settings: faeces, read-out: Drug recovery
Measurement Label: dose excreted at 24 h

**Q:** Recorded dose excreted at 24 h for "Cc1c(Cc2ccc(=O)n(Cc3ccc(F)cc3F)n2)c2cc(F)ccc2n1CC(=O)O" , please?
**A:** > 90%

* * *

assay: Clearance in dog at 2 mg/kg, iv; type: ADME, organism-based, Canis lupus familiaris; design: dose 2 mg/kg, route intravenous; details: in vivo
Measurement Label: clearance (mL/min/kg)
The reply should contain only the number, in mL/min/kg.

smiles=Cc1c(Cc2ccc(=O)n(Cc3ccc(F)cc3F)n2)c2cc(F)ccc2n1CC(=O)O measurement_label=clearance measurement=20

Would you kindly look at the next entry?
**Q:** Recorded clearance for "Cc1c(-c2cn(C(C)C)c(=O)c3ccccc23)c2cc(F)ccc2n1CC(=O)O" , please?
**A:** 5.6

* * *

experiment: Clearance in monkey at 2 mg/kg, iv; format: ADME, organism-based, Macaca mulatta; parameters: dose 2 mg/kg, route intravenous; conditions: rhesus monkey, in vivo
Measurement Label: clearance (mL/min/kg)
The reply should contain only the number, in mL/min/kg.

smiles=Cc1c(-c2cn(C(C)C)c(=O)c3ccccc23)c2cc(F)ccc2n1CC(=O)O measurement_label=clearance measurement=6.1

Would you kindly look at the next entry?
**Q:** Recorded clearance for "Cc1c(Cc2ccc(=O)n(Cc3ccc(F)cc3F)n2)c2cc(F)ccc2n1CC(=O)O" , please?
**A:** 21

The measured values listed here are drawn from ChEMBL document CHEMBL3232705.
